The reader will find reported pEC50 values listed item by item below.
System: viral vectors that replicate using WT HIV reverse transcriptase
protocol.description: single-round infectivity assay, luciferase reporter, vector with WT RT
Type: cell-based, HIV-1
test.context: Human immunodeficiency virus 1, broader panel table, SD in parentheses; read-out: EC50 WT (Table S1)
# pEC50 = -log10(concentration in molar units)

Past entries and their recorded results:
# smiles.record, tgt, pEC50
rows = [
    ("Cc1cc(/C=C/C#N)cc(C)c1-n1cnc2cnc(Nc3ccc(C#N)cc3)nc21", "viral vectors that replicate using WT HIV reverse transcriptase", 9.70),
    ("Cc1cc(/C=C/C#N)cc(C)c1Nc1ncc2ncn(-c3ccc(C#N)cc3)c2n1", "viral vectors that replicate using WT HIV reverse transcriptase", 8.35),
    ("Cc1cc(/C=C/C#N)cc(C)c1Nc1nc(Nc2ccc3scnc3c2)c2nc[nH]c2n1", "viral vectors that replicate using WT HIV reverse transcriptase", 10.00),
]

Query: Quick one: pEC50 for Cc1cc(/C=C/C#N)cc(C)c1Nc1nc(Nc2ccc(C#N)cc2)ncc1N ?
Reply: 9.70

Query: Again, but for Cc1cc(/C=C/C#N)cc(C)c1Nc1nc(Nc2ccc(C#N)cc2)ncc1[N+](=O)[O-]
Reply: 9.70

Query: Again, but for Cc1cc(/C=C/C#N)cc(C)c1Nc1nc(Nc2ccc(C#N)cc2)nc2[nH]cnc12
Reply: 10.00

Query: Again, but for Cc1cc(/C=C/C#N)cc(C)c1Nc1ncc(N)c(Nc2ccc(C#N)cc2)n1
Reply: 9.15

Query: Again, but for Cc1cc(/C=C/C#N)cc(C)c1Nc1nc(Nc2ccc3ncsc3c2)c2nc[nH]c2n1
Reply: 9.70

Query: Again, but for Cc1cc(/C=C/C#N)cc(C)c1Nc1ncc([N+](=O)[O-])c(Nc2ccc(C#N)cc2)n1
Reply: 9.05

Query: Again, but for Cc1cc(/C=C/C#N)cc(C)c1Nc1nc(Nc2ccc(C#N)cc2)c2nc[nH]c2n1
Reply: 9.05
